- System: RPS6KA4(Kin.Dom.1-N-terminal)
- DETAILS: concentration: 1 μM,replicates: in singlicate; n = 1;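 further: KINOMEscan kinase panel screen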
Kindly state %Inh for each of the entries shown.
The reply should contain only the number, in %.

Lookup: For the compound Cc1n[nH]c2cc(Nc3ccnc(Nc4cccc(CN5CCOCC5)c4)n3)ccc12 , give its reported %Inh.
Found: 0

Lookup: For the compound O=C(Nc1ccccc1)c1cccc(Oc2ccc3nccn3n2)c1 , give its reported %Inh.
Found: 0

Lookup: For the compound Cl.Cl.NC[C@H](CC1CCCCC1)NC(=O)c1ccc(-c2ccnc3[nH]ccc23)s1 , give its reported %Inh.
Found: 82

Lookup: For the compound COc1cc2nccc(Nc3ccc(Oc4ccccc4)cc3)c2cc1OC.Cl , give its reported %Inh.
Found: 0

Lookup: For the compound COc1cc2c(Nc3ccc(NC(=O)c4ccccc4)cc3)ncnc2cc1OCCCN1CCOCC1 , give its reported %Inh.
Found: 20

Lookup: For the compound C[C@@H]1CNc2c(sc3ccc4nc(-c5ccncc5)ccc4c23)C(=O)N1 , give its reported %Inh.
Found: 33

Lookup: For the compound Cn1ccc2ncnc(Oc3ccc(NC(=O)Nc4cc(C(C)(C)C)on4)c(Cl)c3)c21 , give its reported %Inh.
Found: 0

Lookup: For the compound CC(=O)c1c(-c2ccncc2)[nH]c(-c2ccncc2)c1C , give its reported %Inh.
Found: 34

Lookup: For the compound O=C(Nc1cccc(Oc2ccc3nccn3n2)c1)Nc1cccc(C(F)(F)F)c1 , give its reported %Inh.
Found: 24

Lookup: For the compound Cc1ccc(C(=O)Nc2ccc(Oc3ccc4nc(NC(=O)C5CC5)cn4c3)c(F)c2)c(=O)n1-c1ccccc1 , give its reported %Inh.
Found: 22

Lookup: For the compound Cc1ccc(CC(=O)N2CCc3cc(-c4cn(C)c5ncnc(N)c45)ccc32)cc1 , give its reported %Inh.
Found: 16

Lookup: For the compound NC(=O)Nc1sc(-c2ccc(F)cc2)cc1C(N)=O , give its reported %Inh.
Found: 46

Lookup: For the compound CCn1c(-c2nonc2N)nc2cncc(CNC3CCNCC3)c21.Cl , give its reported %Inh.
Found: 44

Lookup: For the compound COc1ccc(Nc2nccc(N3CCC(NC(=O)c4cccc(C#N)c4)C3)n2)cc1 (stereo not drawn) , give its reported %Inh.
Found: 15

Lookup: For the compound C[C@@H]1CCN(C(=O)N2CCCC2)C[C@@H]1N(C)c1ncnc2[nH]ccc12 , give its reported %Inh.
Found: 0

Lookup: For the compound COC(=O)c1cccc(NC(=O)NC2CCN(c3ccnc(NCc4ccc(F)cc4)n3)CC2)c1 , give its reported %Inh.
Found: 7

Lookup: For the compound Cn1ccc2ncnc(Oc3ccc(NC(=O)Nc4cnn(C(C)(C)C)c4)c(Cl)c3)c21 , give its reported %Inh.
Found: 0

Lookup: For the compound CN1CCN(CCNc2nc3cc(Oc4ccc(NC(=O)Nc5cc(C(F)(F)F)ccc5F)cc4)ccc3[nH]2)CC1.Cl.Cl , give its reported %Inh.
Found: 5

Lookup: For the compound CS(=O)(=O)c1cccc(CNc2nc(Nc3ccc4c(c3)[C@@H]3C[C@@H]4CNC3=O)ncc2C(F)(F)F)c1 , give its reported %Inh.
Found: 33

Lookup: For the compound c1ccc(Oc2ccc(Nc3ccnc4ccc(-c5ccccn5)cc34)cc2)cc1 , give its reported %Inh.
Found: 11

Lookup: For the compound Cn1ccc2ncnc(Oc3ccc(NC(=O)Nc4cccc(C(F)(F)F)c4)c(F)c3)c21 , give its reported %Inh.
Found: 37

Lookup: For the compound CC(=O)Nc1nc2cnc(Nc3cc(NC(=O)c4cccc(CC(C)(C)C#N)c4)ccc3C)nc2s1 , give its reported %Inh.
Found: 0

Lookup: For the compound COc1cccc(CNC(=O)NC2CCN(c3ccnc(Nc4cc(OC)c(OC)c(OC)c4)n3)C2)c1 (stereo not drawn) , give its reported %Inh.
Found: 1

Lookup: For the compound CNC(=O)c1ccccc1Nc1nc(Nc2cccc(CS(C)(=O)=O)c2)ncc1C.O=CO , give its reported %Inh.
Found: 95.7

Lookup: For the compound Cc1ccc2c(-c3ccnc(Nc4ccc(C(F)(F)F)cc4)n3)cnn2n1 , give its reported %Inh.
Found: 28

Lookup: For the compound O=C1NCCc2[nH]c(-c3ccncc3)cc21 , give its reported %Inh.
Found: 15

Lookup: For the compound Cc1cccc2c(-c3ccncc3)c(-c3ccc(F)cc3)nn12.Cl , give its reported %Inh.
Found: 0

----------
- Tested on: PIM2
- DETAILS: concentration: 1 μM,replicates: in singlicate; n = 1
Kindly state %Inh for each of the entries shown.
The reply should contain only the number, in %.

Lookup: For the compound CC(C(=O)NC1CCN(c2ccnc(Nc3ccc(F)cc3)n2)C1)c1ccc(Cl)cc1 (centres unmarked) [GSK1379713] , give its reported %Inh.
Found: 0

Lookup: For the compound O=C(Nc1cccc(Oc2ccc3nccn3n2)c1)Nc1cccc(C(F)(F)F)c1 , give its reported %Inh.
Found: 10

Lookup: For the compound C[C@@H](Oc1cc(-n2cnc3cc(-c4ccncc4)ccc32)sc1C(N)=O)c1ccccc1Cl [GSK479719] , give its reported %Inh.
Found: 0

Lookup: For the compound O=C(Nc1ccc(Oc2ccc3nc(NC(=O)C4CC4)cn3n2)c(F)c1)c1cccn(-c2ccccc2)c1=O , give its reported %Inh.
Found: 8

Lookup: For the compound Cl.Cl.NC[C@H](CC1CCCCC1)NC(=O)c1ccc(-c2ccnc3[nH]ccc23)s1 [GSK1581428] , give its reported %Inh.
Found: 0

Lookup: For the compound CC(=O)Nc1nc2cnc(Nc3cc(NC(=O)c4cccc(CC(C)(C)C#N)c4)ccc3C)nc2s1 , give its reported %Inh.
Found: 8

Lookup: For the compound Cn1ccc2ncnc(Oc3ccc(NC(=O)Nc4cccc(C(F)(F)F)c4)c(Cl)c3)c21 , give its reported %Inh.
Found: 1

Lookup: For the compound COc1cc2nccc(Nc3ccc(Oc4ccccc4)cc3)c2cc1OC.Cl [GI261656] , give its reported %Inh.
Found: 0

Lookup: For the compound Cc1ccn2nc(-c3ccc(F)cc3)c(-c3ccncc3)c2c1.Cl [GW457859] , give its reported %Inh.
Found: 0

Lookup: For the compound C[C@@H](Oc1cc(-n2cnc3cc(-c4cnn(C)c4)ccc32)sc1C(N)=O)c1ccccc1Cl [GSK580432] , give its reported %Inh.
Found: 0

Lookup: For the compound Cl.Nc1n[nH]c2cc(-c3ccccn3)ccc12 [GSK2189892] , give its reported %Inh.
Found: 0

Lookup: For the compound NC(=O)Nc1sc(-c2ccc(F)cc2)cc1C(N)=O [GW789449] , give its reported %Inh.
Found: 0

Lookup: For the compound O=C1NCCc2[nH]c(-c3ccncc3)cc21 , give its reported %Inh.
Found: 23

Lookup: For the compound CCn1c(-c2nonc2N)nc2cncc(Br)c21 [SB-738004] , give its reported %Inh.
Found: 0

Lookup: For the compound CCN1CCN(CCCC(=O)Nc2n[nH]c3nc(-c4ccc(O)cc4)c(Br)cc23)CC1 [SB-731579] , give its reported %Inh.
Found: 89

Lookup: For the compound C[C@@H]1CNc2c(sc3ccc4nc(-c5ccncc5)ccc4c23)C(=O)N1 , give its reported %Inh.
Found: 69

Lookup: For the compound CN(c1ccccc1CNc1nc(Nc2ccc3c(c2)CC(=O)N3)ncc1C(F)(F)F)S(C)(=O)=O , give its reported %Inh.
Found: 0

Lookup: For the compound OCCn1cc(-c2cnc3nnn(Cc4ccc5ncccc5c4)c3n2)cn1 , give its reported %Inh.
Found: 0

Lookup: For the compound CCOC(=O)N1CCC(n2cnc(-c3ccc(F)cc3)c2-c2ccnc(N)n2)CC1 [SB-219952] , give its reported %Inh.
Found: 0

Lookup: For the compound O=C(NOCC1CC1)c1cc(Br)c(F)c(F)c1Nc1ccc(I)cc1Cl , give its reported %Inh.
Found: 9

----------
- Tested on: PAK6
- DETAILS: concentration: 1 μM,replicates: in singlicate; n = 1
ATTRIBUTE MEASURED: %Inh (%)
The reply should contain only the number, in %.

Lookup: For the compound c1ccc(Oc2ccc(Nc3ccnc4ccc(-c5ccccn5)cc34)cc2)cc1 [GW407034] , give its reported %Inh.
Found: 0

Lookup: For the compound O=C(Nc1ccc(Oc2ccc3nc(NC(=O)C4CC4)cn3n2)c(F)c1)c1cccn(-c2ccccc2)c1=O , give its reported %Inh.
Found: 0

Lookup: For the compound O=C(Nc1cccc(C(F)(F)F)c1)c1cccc(Oc2ccc3nccn3n2)c1 , give its reported %Inh.
Found: 1

Lookup: For the compound OCCn1cc(-c2cnc3nnn(Cc4ccc5ncccc5c4)c3n2)cn1 , give its reported %Inh.
Found: 0

Lookup: For the compound NC(=O)c1ccc(-c2cc3ncnc(SCC(=O)O)c3s2)cc1 , give its reported %Inh.
Found: 0

Lookup: For the compound CNC(=O)c1ccccc1Nc1nc(Nc2cccc(CS(C)(=O)=O)c2)ncc1C.O=CO [GSK1520489] , give its reported %Inh.
Found: 79

Lookup: For the compound Cc1ccc(C(=O)Nc2ccc(Oc3ccc4nc(NC(=O)C5CC5)cn4c3)c(F)c2)c(=O)n1-c1ccccc1 , give its reported %Inh.
Found: 8

Lookup: For the compound O=C(Nc1cccc(Oc2ccc3nccn3n2)c1)Nc1cccc(C(F)(F)F)c1 , give its reported %Inh.
Found: 5

Lookup: For the compound CC(C(=O)NC1CCN(c2ccnc(Nc3ccc(F)cc3)n2)C1)c1ccc(Cl)cc1 (stereo not drawn) [GSK1379713] , give its reported %Inh.
Found: 0

Lookup: For the compound COc1cccc(CNC(=O)NC2CCN(c3ccnc(Nc4cc(OC)c(OC)c(OC)c4)n3)C2)c1 (stereo not drawn) [GSK1379765] , give its reported %Inh.
Found: 0

Lookup: For the compound Cn1ccc2ncnc(Oc3ccc(NC(=O)Nc4ccnc(C(F)(F)F)c4)c(Cl)c3)c21 , give its reported %Inh.
Found: 0

Lookup: For the compound CN1CCN(CCNc2nc3cc(Oc4ccc(NC(=O)Nc5cc(C(F)(F)F)ccc5F)cc4)ccc3[nH]2)CC1.Cl.Cl [GW768504] , give its reported %Inh.
Found: 0

Lookup: For the compound Cl.Nc1n[nH]c2cc(-c3ccccn3)ccc12 [GSK2189892] , give its reported %Inh.
Found: 2

Lookup: For the compound Cc1ccc2c(-c3ccnc(Nc4ccc(C(F)(F)F)cc4)n3)cnn2n1 [GW819776] , give its reported %Inh.
Found: 0

Lookup: For the compound NC(=O)Nc1sc(-c2ccc(F)cc2)cc1C(N)=O [GW789449] , give its reported %Inh.
Found: 12

Lookup: For the compound C[C@@H]1CNc2c(sc3ccc4nc(-c5ccc(O)cc5)ccc4c23)C(=O)N1 , give its reported %Inh.
Found: 17

Lookup: For the compound COc1cc(Nc2nccc(N3CCC(NC(=O)c4cccc(C#N)c4)C3)n2)cc(OC)c1OC (stereo not drawn) [GSK1379751] , give its reported %Inh.
Found: 0

Lookup: For the compound CCn1c(-c2nonc2N)nc2cncc(Br)c21 [SB-738004] , give its reported %Inh.
Found: 15

Lookup: For the compound CCNCC(Cc1ccccc1)NC(=O)c1cc(Br)c(-c2ccnc3[nH]ccc23)s1.Cl.Cl (stereo not drawn) [GSK1383280] , give its reported %Inh.
Found: 60

Lookup: For the compound O=C(NCC1CC1)c1ccc(-c2cc(C(=O)NC3CC3)ccc2F)cc1 [GW810445] , give its reported %Inh.
Found: 0

Lookup: For the compound COC(=O)Nc1nc2cc(Oc3ccc(NC(=O)Nc4cc(C(F)(F)F)ccc4Cl)cc3)ccc2[nH]1.Cl [GW697465] , give its reported %Inh.
Found: 0

Lookup: For the compound Cn1ccc2ncnc(Oc3ccc(NC(=O)Nc4cc(C(C)(C)C)on4)c(Cl)c3)c21 , give its reported %Inh.
Found: 1

Lookup: For the compound Cn1ccc2ncnc(Oc3ccc(NC(=O)Nc4cnn(C(C)(C)C)c4)c(Cl)c3)c21 , give its reported %Inh.
Found: 19

Lookup: For the compound COc1cc2ncn(-c3cc(OCC4CCCCC4)c(C(N)=O)s3)c2cc1OC [GSK204559] , give its reported %Inh.
Found: 0

Lookup: For the compound N#Cc1cccc(C(=O)NC2CCN(c3ccnc(Nc4ccc(F)cc4)n3)C2)c1 (stereo not drawn) [GSK1379708] , give its reported %Inh.
Found: 27

Lookup: For the compound C[C@@H](Oc1cc(-n2cnc3cc(-c4cnn(C)c4)ccc32)sc1C(N)=O)c1ccccc1Cl [GSK580432] , give its reported %Inh.
Found: 2

Lookup: For the compound COc1cc2nccc(Nc3ccc(Oc4ccccc4)cc3)c2cc1OC.Cl [GI261656] , give its reported %Inh.
Found: 0
